- subject_of_test: GST-RIPK1 (recombinant GST-RIPK1 kinase domain (residues 1-327)) (Homo sapiens)
- Construct: recombinant GST-RIPK1 kinase domain (residues 1-327) enzyme
- Sequence (Q13546 1-327): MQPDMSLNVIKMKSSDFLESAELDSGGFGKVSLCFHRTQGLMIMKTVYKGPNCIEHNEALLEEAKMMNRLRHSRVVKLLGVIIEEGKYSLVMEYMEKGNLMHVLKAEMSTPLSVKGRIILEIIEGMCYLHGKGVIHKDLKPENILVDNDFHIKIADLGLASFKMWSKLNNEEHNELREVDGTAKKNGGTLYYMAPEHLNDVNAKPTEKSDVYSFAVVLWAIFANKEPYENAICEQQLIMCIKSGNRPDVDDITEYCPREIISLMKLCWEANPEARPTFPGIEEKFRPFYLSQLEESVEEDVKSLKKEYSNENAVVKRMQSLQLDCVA
- assay_notes: RIPK1-ADP-Glo enzymatic assay
- test_context: 25 nM GST-RIPK1, 300 μM ATP, 3 μM dephosphorylated-MBP; 30 minutes pre-incubation, 150 minutes reaction; ten-point titration
readout_label: IC50 (nM)

Reference set, count: 3
{"compound": "CC(C)(C(=O)N1C[C@@H]2C[C@H]1c1cncc(C#CCc3ccccc3)c1O2)C(F)F", "IC50 / nM": 98}
{"compound": "CC1(C(=O)N2C[C@@H]3C[C@H]2c2cncc(Cl)c2O3)CCCC1", "IC50 / nM": 79}
{"compound": "N#Cc1cncc2c1O[C@H]1C[C@@H]2N(C(=O)C23CCCC2C3)C1 (single isomer, unassigned) [Compound 1-32]", "IC50 / nM": 290}

1. N#Cc1cncc2c1O[C@H]1C[C@@H]2N(C(=O)C23CCCC2C3(F)F)C1 (single isomer, unassigned) [Compound 1-86]
2. CC(C)Oc1ncc(C#Cc2cncc3c2O[C@H]2C[C@@H]3N(C(=O)C(C)(C)C(F)F)C2)cn1
3. Cc1ncc2c(c1C#N)O[C@H]1C[C@@H]2N(C(=O)C(C)(C)C(F)F)C1
4. N#Cc1cncc2c1O[C@H]1C[C@@H]2N(C(=O)C2CC3(CCCC3)C2)C1
**Query** # sort list by recorded IC50, greatest to least Returns: the labels listed in the requested order.
**Result** 4, 3, 1, 2
(4: 330 nM, 3: 84 nM, 1: 33 nM, 2: 18 nM)
